Assay: qHTS for Inhibitors of human tyrosyl-DNA phosphodiesterase 1 (TDP1): qHTS in cells in presence of CPT; further: nearly all actives have a fitted effect of over 55% in size
Settings: chicken DT40 Tdp1-/-;hTDP1 cells + 20 nM CPT, ATP luminescence, 48 h; series mostly up to 46.2 µM
Hit rate of the full screen: of about 420,000 compounds, about 50,000 (12%) were called active. Not shown: some 26% with an inconclusive outcome. The call rests on the fitted dose curve; in most records, active means well fitted inhibition curve with a large enough effect; inconclusive means small, poorly fitted or top-dose-only effect; inactive means flat fitted curve, though single readings scatter. The sample as a whole holds a higher share of actives than the screen did.
Labels: class 1 for active, class 0 for inactive

{"compound": "C=CCn1c(=N)n(CC(O)COc2ccc(OC)cc2)c2ccccc21 (stereo unspecified)", "assigned_category": "class 1"}
{"compound": "CCCS(=O)(=O)N1CCN=C1SCc1cccc(F)c1", "assigned_category": "class 0"}
{"compound": "CCCC[C@@H]1CN=C(N)N1CCc1cc(C(F)(F)F)cc(C(F)(F)F)c1", "assigned_category": "class 1"}
{"compound": "CCCC[C@@H]1CN=C(N)N1CCc1cccc(F)c1", "assigned_category": "class 1"}
{"compound": "COc1ccc(-n2ccn(CC(=O)Nc3ccc(C)c(C)c3)c(=O)c2=O)cc1OC", "assigned_category": "class 0"}
{"compound": "O=C1NC[C@@H](Cc2ccc(O)cc2)N(CCc2cccc(F)c2)C1=O", "assigned_category": "class 0"}

* * *

Test: qHTS for Inhibitors of human tyrosyl-DNA phosphodiesterase 1 (TDP1): qHTS in cells in presence of CPT; further: nearly all actives have a fitted effect of over 55% in size
Conditions: chicken DT40 Tdp1-/-;hTDP1 cells + 20 nM CPT, ATP luminescence, 48 h; series mostly up to 46.2 µM
The whole screen tested about 420,000 compounds, of which about 50,000 (12%) were called active. About 26% were inconclusive and are not listed. The call rests on the fitted dose curve; in most records, active means well fitted inhibition curve with a large enough effect; inconclusive means small, poorly fitted or top-dose-only effect; inactive means flat fitted curve, though single readings scatter. The list comes from a sample in which actives are over-represented; it also holds close analogues and randomly drawn compounds.
Labels: active, inactive

{"structure_notation": "Oc1cccc2ccc(/C=C/c3ccc(Br)s3)nc12", "assigned_category": "inactive"}
{"structure_notation": "Cc1c(Cl)cccc1NC(=O)C(=O)NCCc1csc2nc(-c3ccccc3F)nn12", "assigned_category": "active"}
{"structure_notation": "O=C(Nc1cccc(C(=O)O)c1)/C(=C\\c1ccccc1)NC(=O)c1ccc(Br)o1", "assigned_category": "inactive"}
{"structure_notation": "O=C(N/N=C/c1c[nH]c2ccccc12)c1cc2ccccc2o1", "assigned_category": "active"}
{"structure_notation": "CCOc1ccc(NC(=O)C(=O)NCCc2csc3nc(-c4ccccc4F)nn23)cc1", "assigned_category": "inactive"}

* * *

Assay: qHTS for Inhibitors of human tyrosyl-DNA phosphodiesterase 1 (TDP1): qHTS in cells in presence of CPT; further: nearly all actives have a fitted effect of over 55% in size
Conditions: chicken DT40 Tdp1-/-;hTDP1 cells + 20 nM CPT, ATP luminescence, 48 h; series mostly up to 46.2 µM
Procedure: Human tyrosyl-DNA phosphodiesterase 1 (TDP1) is a novel repair gene, and we propose to use it as a new target for anticancer drug development. […] For the primary screen, Tdp1-/-;hTDP1 cells will be exposed to small molecules in the presence or absence of CPT, and their growth kinetics will be evaluated after 48 hours by measuring ATP activity. […] The hit compounds will then be evaluated in the presence or absence of CPT using Tdp1-/- cells. […]
Hit rate of the full screen: of about 420,000 compounds, about 50,000 (12%) were called active. Inconclusive results (about 26%) are left out. Calls come from the whole dose curve; as a rule, active = well fitted inhibition curve with a large enough effect; inconclusive = small, poorly fitted or top-dose-only effect; inactive = flat fitted curve, though single readings scatter. For the sample, actives were picked, then their nearest neighbours and some compounds at random.
Outcome codes: active, inactive

{"molecule": "COc1ccc(C(CNC(=O)CSc2ccccc2)N2CCOCC2)cc1 (stereo unspecified)", "assigned_category": "inactive"}
{"molecule": "O=C1NC(c2ccccc2)Cc2ccncc21 (stereo unspecified)", "assigned_category": "inactive"}
{"molecule": "COc1cc(C(=O)OCCCN2CCOCC2)cc(OC)c1OC", "assigned_category": "inactive"}
{"molecule": "COc1ccc(C(CNC(=O)c2cc3c(s2)CCCC3)N2CCOCC2)cc1 (stereo unspecified)", "assigned_category": "inactive"}
{"molecule": "CC(C)(C)c1ccc(C(=O)NCC(c2ccc(Cl)cc2)N2CCOCC2)cc1 (stereo unspecified)", "assigned_category": "active"}
{"molecule": "COc1cc(C(=O)NCC(c2ccc(Cl)cc2)N2CCOCC2)cc(OC)c1OC (stereo unspecified)", "assigned_category": "active"}

* * *

Test: qHTS for Inhibitors of human tyrosyl-DNA phosphodiesterase 1 (TDP1): qHTS in cells in presence of CPT; further: nearly all actives have a fitted effect of over 55% in size
Settings: chicken DT40 Tdp1-/-;hTDP1 cells + 20 nM CPT, ATP luminescence, 48 h; series mostly up to 46.2 µM
In all, about 420,000 compounds went through this assay and about 50,000 (12%) were called active. About 26% were inconclusive and are not listed. Calls come from the whole dose curve; as a rule, active = well fitted inhibition curve with a large enough effect; inconclusive = small, poorly fitted or top-dose-only effect; inactive = flat fitted curve, though single readings scatter. For the sample, actives were picked, then their nearest neighbours and some compounds at random.
Possible outcomes: active, inactive

{"structure_notation": "COc1ccc(-c2nn3c(-c4ccc(OC)cc4)nnc3c3ccccc23)cc1", "assigned_category": "inactive"}
{"structure_notation": "Cc1nc2ccccc2c(=O)n1NC(=O)c1ccccc1", "assigned_category": "inactive"}
{"structure_notation": "CSc1nc(N(C)NC(=O)c2cccc(C)c2)c2ccccc2n1", "assigned_category": "active"}
{"structure_notation": "COc1cc(/C=C2\\CCCc3c2nc2ccccc2c3C(=O)O)cc(Cl)c1O", "assigned_category": "inactive"}
{"structure_notation": "O=C(Cn1cnc2ccccc2c1=O)NNC(=O)c1ccccc1F", "assigned_category": "inactive"}
{"structure_notation": "Cc1cc2c(=O)n(CC(=O)NCC(=O)Nc3ccc(C(C)C)cc3)cnc2s1", "assigned_category": "inactive"}

* * *

Assay: qHTS for Inhibitors of human tyrosyl-DNA phosphodiesterase 1 (TDP1): qHTS in cells in presence of CPT; further: nearly all actives have a fitted effect of over 55% in size
Details: chicken DT40 Tdp1-/-;hTDP1 cells + 20 nM CPT, ATP luminescence, 48 h; series mostly up to 46.2 µM
Hit rate of the full screen: of about 420,000 compounds, about 50,000 (12%) were called active. About 26% were inconclusive and are not listed. Calls come from the whole dose curve; as a rule, active = well fitted inhibition curve with a large enough effect; inconclusive = small, poorly fitted or top-dose-only effect; inactive = flat fitted curve, though single readings scatter. The list comes from a sample in which actives are over-represented; it also holds close analogues and randomly drawn compounds.
Outcomes: active, inactive

{"molecule": "COc1cc(NC(=O)c2nn(-c3ccc(C)cc3)c(=O)c3c2c2ccccc2n3C)cc(OC)c1OC", "assigned_category": "inactive"}
{"molecule": "O=C1C(=O)N(CCCO)C(c2ccccc2)/C1=C(\\O)c1ccc(Br)cc1 (centres undefined)", "assigned_category": "inactive"}
{"molecule": "COc1ccc(CCNC(=O)c2c(C)nn(-c3ccccc3)c2Cl)cc1", "assigned_category": "inactive"}
{"molecule": "O=C(C1=C(O)C(=O)N(Cc2ccccc2)C1c1ccco1)c1ccco1 (centres undefined)", "assigned_category": "inactive"}
{"molecule": "CCOC(=O)C(Cc1ccccc1)NC(=O)CCC(=O)c1ccc(OC)cc1 (centres undefined)", "assigned_category": "inactive"}
{"molecule": "O=C(O)c1ccccc1OCc1ccccc1Cl", "assigned_category": "inactive"}
{"molecule": "O=S(=O)(c1ccc(Cl)s1)N1CCC2(CC1)OCCO2", "assigned_category": "inactive"}
{"molecule": "COc1cccc2cc(C(=O)N3CCN(C(=O)c4ccccc4)CC3)c(=O)oc12", "assigned_category": "inactive"}
{"molecule": "CCCC(=O)Nc1cc2nn(-c3ccccc3)nc2cc1C", "assigned_category": "inactive"}
{"molecule": "CC(C)(C)OC(=O)N/N=C/c1ccc(C(=O)O)cc1", "assigned_category": "inactive"}
{"molecule": "Cc1ccccc1C(=O)NCC(c1ccco1)N1CCc2ccccc21 (centres undefined)", "assigned_category": "inactive"}
{"molecule": "Cc1cc(C(=O)NCCc2ccc(Cl)cc2)n(-c2ccccc2)n1", "assigned_category": "active"}
{"molecule": "COc1ccc(F)cc1C(=O)COC(=O)c1n[nH]c(=O)c2ccccc12", "assigned_category": "inactive"}
{"molecule": "O=C(NC1CCC(O)CC1)c1ccccc1OCc1ccc(F)cc1 (centres undefined)", "assigned_category": "inactive"}
{"molecule": "COc1ccc(-c2cc(=O)oc3cc(OCC(=O)N(C)C4CCS(=O)(=O)C4)ccc23)cc1 (centres undefined)", "assigned_category": "inactive"}
{"molecule": "COc1cc(OC)cc(C(=O)Nc2cc3nn(-c4ccccc4)nc3cc2Cl)c1", "assigned_category": "active"}
{"molecule": "COc1ccccc1N1CCN(C(=O)c2cc(=O)c3cc(C)cc(C)c3o2)CC1", "assigned_category": "active"}
{"molecule": "O=C(NCc1cccnc1)c1ccccc1NC(=O)c1c(F)cccc1F", "assigned_category": "inactive"}
{"molecule": "CCc1nnc(NC(=O)CCCSc2nc3ccccc3[nH]2)s1", "assigned_category": "inactive"}
{"molecule": "COCCCNC(=O)CNC(=O)c1nn(-c2ccc(OC)cc2)c(=O)c2ccccc12", "assigned_category": "inactive"}
{"molecule": "CCn1cc(C(=O)OCC(=O)Nc2cc(C)cc(C)c2)c(=O)c2ccc(C)nc21", "assigned_category": "inactive"}
{"molecule": "Cc1[nH]c2ccccc2c1C(=O)CN1CC(C)CC(C)C1 (centres undefined)", "assigned_category": "active"}
{"molecule": "CCNC(=O)C1CCCN(C(=O)c2cc(F)ccc2C)CC1 (centres undefined)", "assigned_category": "inactive"}
{"molecule": "COC(=O)Cn1cnc2scc(-c3ccc(C)c(C)c3)c2c1=O", "assigned_category": "inactive"}
{"molecule": "CC(C)(C)C(=O)NC(NC(=S)Nc1ccc(S(N)(=O)=O)cc1)C(Cl)(Cl)Cl (centres undefined)", "assigned_category": "inactive"}
{"molecule": "COc1ccccc1CNC(=O)CCCN1C(=O)NC2(CCCC2)C1=O", "assigned_category": "inactive"}
{"molecule": "CCOc1cc(C2C(C(=O)c3ccco3)=C(O)C(=O)N2Cc2ccccc2)ccc1O (centres undefined)", "assigned_category": "inactive"}
{"molecule": "COC(=O)c1ccc2c(c1)S(=O)(=O)NC2C (centres undefined)", "assigned_category": "inactive"}
{"molecule": "Cc1ccc(Cl)cc1N1CCN(C(=O)c2cccn3c(=O)c4cc(Cl)ccc4nc23)CC1", "assigned_category": "inactive"}
{"molecule": "COc1ccccc1OCc1ccc(C(=O)N2CCN(C)CC2)o1", "assigned_category": "inactive"}
{"molecule": "C/C(CC(=O)NC(C)(C)C)=N\\NC(=O)c1ccco1", "assigned_category": "inactive"}
{"molecule": "CC1CCN(C(=O)/C(=C\\c2ccccc2)NC(=O)c2ccccc2)CC1", "assigned_category": "inactive"}
{"molecule": "O=C(Nc1cccc(F)c1)[C@@H]1CCCN1", "assigned_category": "inactive"}
{"molecule": "CCO[C@H]1OC(C(=O)N2CCOCC2)=C[C@@H](c2ccc3c(c2)OCO3)[C@@H]1CCCO", "assigned_category": "inactive"}
{"molecule": "CC(=O)c1ccccc1OCc1ccc(C(=O)c2ccccc2)cc1", "assigned_category": "active"}
{"molecule": "COc1ccccc1CC(=O)Nc1ccc([N+](=O)[O-])cc1OC", "assigned_category": "inactive"}
{"molecule": "O=C(NCc1ccccn1)[C@@H]1CCCN1C(=O)[C@@H]1CCCN1C(=O)c1ccccc1", "assigned_category": "inactive"}
{"molecule": "O=C(NC1CCCCC1)C1CCCN(S(=O)(=O)c2ccc(Br)s2)C1 (centres undefined)", "assigned_category": "inactive"}
{"molecule": "CO/N=C/c1cn(-c2ccc(Cl)cc2)nn1", "assigned_category": "inactive"}
{"molecule": "CCOC(=O)c1cc(-c2ccccc2)n(-c2cccc(C(=O)Nc3cc(OC)cc(OC)c3)c2)c1C", "assigned_category": "inactive"}
{"molecule": "COc1ccc2oc(=O)c(C(=O)N3CCN(c4ccccc4F)CC3)cc2c1", "assigned_category": "inactive"}
{"molecule": "CCc1nnc(NC(=O)c2cc(S(=O)(=O)N3CCN(CC)CC3)ccc2Cl)s1", "assigned_category": "inactive"}
{"molecule": "Cc1ccc2oc(=O)c3cnn(CC(=O)N4CCN(c5ccccn5)CC4)c3c2c1", "assigned_category": "inactive"}
{"molecule": "CC[C@]1(c2ccccc2OC)C(=O)N(C(=O)OC)N1C(=O)OC", "assigned_category": "active"}

// data source = PubChem BioAssay AID686979
